# targetOrSystem: UniProtKB Q12809
# Sequence (Q12809 whole entry): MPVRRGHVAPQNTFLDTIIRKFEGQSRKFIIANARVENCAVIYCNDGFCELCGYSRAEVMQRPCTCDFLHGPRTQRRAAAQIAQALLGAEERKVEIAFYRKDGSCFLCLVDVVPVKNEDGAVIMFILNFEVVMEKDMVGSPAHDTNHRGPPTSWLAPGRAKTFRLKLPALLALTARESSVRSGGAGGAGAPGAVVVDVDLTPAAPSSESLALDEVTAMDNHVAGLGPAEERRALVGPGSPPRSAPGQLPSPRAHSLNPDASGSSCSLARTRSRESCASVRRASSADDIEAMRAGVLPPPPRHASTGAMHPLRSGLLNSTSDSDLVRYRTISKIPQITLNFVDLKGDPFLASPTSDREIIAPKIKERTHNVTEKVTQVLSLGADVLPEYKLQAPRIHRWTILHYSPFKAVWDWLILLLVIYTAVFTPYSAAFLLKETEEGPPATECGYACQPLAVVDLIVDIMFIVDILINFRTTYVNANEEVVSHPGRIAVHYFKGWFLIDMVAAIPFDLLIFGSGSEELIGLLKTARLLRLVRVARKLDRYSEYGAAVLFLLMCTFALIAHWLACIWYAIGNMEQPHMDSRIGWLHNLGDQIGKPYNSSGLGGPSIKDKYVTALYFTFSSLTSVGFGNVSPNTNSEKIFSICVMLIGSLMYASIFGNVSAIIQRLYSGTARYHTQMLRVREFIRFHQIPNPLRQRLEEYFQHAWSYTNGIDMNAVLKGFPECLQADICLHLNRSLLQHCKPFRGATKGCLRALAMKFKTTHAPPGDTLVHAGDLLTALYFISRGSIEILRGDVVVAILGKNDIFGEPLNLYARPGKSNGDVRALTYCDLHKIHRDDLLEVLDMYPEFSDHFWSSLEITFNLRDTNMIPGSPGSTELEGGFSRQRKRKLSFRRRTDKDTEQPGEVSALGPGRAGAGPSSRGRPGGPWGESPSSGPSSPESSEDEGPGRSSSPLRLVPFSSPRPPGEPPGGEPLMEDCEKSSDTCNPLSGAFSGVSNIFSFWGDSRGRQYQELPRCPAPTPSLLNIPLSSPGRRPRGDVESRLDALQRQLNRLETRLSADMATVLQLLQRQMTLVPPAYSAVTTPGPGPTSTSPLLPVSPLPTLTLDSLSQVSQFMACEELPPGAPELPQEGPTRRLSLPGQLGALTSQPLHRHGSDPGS
# Assay type: functional
# protocolConditions: read-out: AC50
I'd be grateful if you could share measured AC50 for these entries.

Quick one: give me AC50 for each item below, same order please.
1. Nc1ccc(C(=O)O)cc1
2. CCOC(=O)C(c1c(O)c2ccccc2oc1=O)c1c(O)c2ccccc2oc1=O [ETHYL BISCOUMACETATE]
3. CCCOc1ccc(C(=O)OCCN(CC)CC)cc1N
4. C[C@@H]1C[C@H]2[C@@H]3C[C@H](F)C4=CC(=O)C=C[C@]4(C)[C@@]3(F)[C@@H](O)C[C@]2(C)[C@@]1(O)C(=O)COC(=O)C(C)(C)C [FLUMETHASONE PIVALATE]

## Output
1: > 30 µM; 2: > 30 µM; 3: 6.4 µM; 4: > 30 µM

Provenance of the data: ChEMBL document CHEMBL5291721
